Where do the numbers come from? From the RNAGym collection of RNA variant scans (doi:10.7554/elife.90254).

B1: LINE1-full (parent)
chain: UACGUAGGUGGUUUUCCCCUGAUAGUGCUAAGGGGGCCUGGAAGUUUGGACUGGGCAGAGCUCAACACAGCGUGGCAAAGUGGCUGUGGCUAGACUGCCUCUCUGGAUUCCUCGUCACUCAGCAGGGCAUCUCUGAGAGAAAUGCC

Variants of: B1
TEST_DETAILS: self-cleavage, relative activity (ratio to wild type); higher = more cleavage; in vitro, sequencing; the parent is a self-cleaving ribozyme
Recorded self-cleavage by entry

For orientation, consider the following solved cases.
[[record]]
mutation_string = "U14A A64G"
observed_result = 0.21

[[record]]
mutation_string = "U13C U20A"
observed_result = 1.07

[[record]]
mutation_string = "U13C C56U"
observed_result = 0.15

[[record]]
mutation_string = "A57U C145U"
observed_result = 0.08

[[record]]
mutation_string = "U96A U104G"
observed_result = 0.08

[[record]]
mutation_string = "U23C U143C"
observed_result = 1.41


[Q] Param item = U96A G114A ; retrieve measured self-cleavage.
[A] 0.06

[Q] Param item = G75A U132A ; retrieve measured self-cleavage.
[A] 1.15

[Q] Param item = U13A A57G ; retrieve measured self-cleavage.
[A] 0.51

[Q] Param item = U87A G97U ; retrieve measured self-cleavage.
[A] 0.08

[Q] Param item = A24G A140U ; retrieve measured self-cleavage.
[A] 0.9

[Q] Param item = U14A A50U ; retrieve measured self-cleavage.
[A] 0.18

[Q] Param item = U12G A140G ; retrieve measured self-cleavage.
[A] 0.91

[Q] Param item = U15A U29A ; retrieve measured self-cleavage.
[A] 0.38

[Q] Param item = C99A A138G ; retrieve measured self-cleavage.
[A] 0.88

[Q] Param item = U52G U91C ; retrieve measured self-cleavage.
[A] 1.23

[Q] Param item = G80A G127C ; retrieve measured self-cleavage.
[A] 1.6

[Q] Param item = U9G U115C ; retrieve measured self-cleavage.
[A] 0.29
